# IC50 per record follows
TARGET_SYSTEM: T1, human Fc-PD-1 (R&D systems) (human, UniProt Q15116 25-167)
T1 construct: Bought Fc fusion coated on the ELISA plate; also called human PD-1; not shown: Fc part of the bought fusion protein
T1 sequence (Q15116 25-167 limits assumed): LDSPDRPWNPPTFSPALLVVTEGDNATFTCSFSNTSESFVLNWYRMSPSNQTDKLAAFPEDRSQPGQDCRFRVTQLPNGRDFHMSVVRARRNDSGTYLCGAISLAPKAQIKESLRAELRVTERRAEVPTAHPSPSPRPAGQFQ
PROTOCOL_DESCRIPTION: competition ELISA on coated human Fc-PD-1; competitor biotinylated EH12.2H7
Expressed in µg/mL, but write only the number.

BINDER: mouse anti-human PD-1 antibody EH12.2H7 (antibody, V domains shown, Mouse monoclonal antibody; also called Biotin-EH12.2H7) VH: QVQLQQSGAELAKPGASVQMSCKASGYSFTSSWIHWVKQRPGQGLEWIGYIYPSTGFTEYNQKFKDKATLTADKSSSTAYMQLSSLTSEDSAVYYCARWRDSSGYHAMDYWGQGTSVTVSS VL: DIVLTQSPASLTVSLGQRATISCRASQSVSTSGYSYMHWYQQKPGQPPKLLIKFGSNLESGIPARFSGSGSGTDFTLNIHPVEEEDTATYYCQHSWEIPYTFGGGTKLEIK
UNIT_STRING: µg/mL
IC50: 1.23

BINDER: EH12.2H7 composite, human antibody VH3/VK4 (antibody, V domains shown, V regions cloned into vectors containing human constant regions (quantified against an IgG1/kappa standard; isotype not expressly stated)) VH: QVQLVQSGHEVKQPGASVKMSCKASGYSFTSSWIHWVKQAPGQGLEWIGYIYPSTGFTEYNQKFKDRATLTADKSTSTAYMELSSLRSEDTAVYYCARWRDSSGYHAMDYWGQGTLVTVSS VL: DIVLTQSPATLSLSPGQRLTISCRASQSVSTSGYSYMHWYQQKPDQSPKLLIKFGSNLESGIPARFSGSGSGTDFTLTISSLEPEDFAVYYCQHSWEIPYTFGQGTKLEIK
UNIT_STRING: µg/mL
IC50: 0.74

Please find the next binder below.
Exercise: Supply recorded IC50 for EH12.2H7 composite, human antibody VH3/VK3 (antibody, V domains shown, V regions cloned into vectors containing human constant regions (quantified against an IgG1/kappa standard; isotype not expressly stated)) VH: QVQLVQSGHEVKQPGASVKMSCKASGYSFTSSWIHWVKQAPGQGLEWIGYIYPSTGFTEYNQKFKDRATLTADKSTSTAYMELSSLRSEDTAVYYCARWRDSSGYHAMDYWGQGTLVTVSS VL: EIVLTQSPATLSLSPGQRLTISCRASQSVSTSGYSYMHWYQQKPDQSPKLLIKFGSNLESGIPARFSGSGSGTDFTLTISSLEPEDFATYYCQHSWEIPYTFGQGTKLEIK here.
Key: 0.93
